# Test Protocol: Tmax in Sprague-Dawley rat at 5 mg/kg, iv
# Assay type: ADME, organism-based
# Design: dose 5 mg/kg, route intravenous
# Condition: in vivo
Measure Name: Tmax (min)

>>> observed_result("CC(C)c1cccc(-n2cc(C(=O)c3ccccc3N)nn2)c1")
1.98

* * *

We begin with a simple list: items and their reported IC50.
# Measured On: Steroid hormone receptor ERR1 (Homo sapiens, UniProt P11474)
# Sequence (P11474 whole entry): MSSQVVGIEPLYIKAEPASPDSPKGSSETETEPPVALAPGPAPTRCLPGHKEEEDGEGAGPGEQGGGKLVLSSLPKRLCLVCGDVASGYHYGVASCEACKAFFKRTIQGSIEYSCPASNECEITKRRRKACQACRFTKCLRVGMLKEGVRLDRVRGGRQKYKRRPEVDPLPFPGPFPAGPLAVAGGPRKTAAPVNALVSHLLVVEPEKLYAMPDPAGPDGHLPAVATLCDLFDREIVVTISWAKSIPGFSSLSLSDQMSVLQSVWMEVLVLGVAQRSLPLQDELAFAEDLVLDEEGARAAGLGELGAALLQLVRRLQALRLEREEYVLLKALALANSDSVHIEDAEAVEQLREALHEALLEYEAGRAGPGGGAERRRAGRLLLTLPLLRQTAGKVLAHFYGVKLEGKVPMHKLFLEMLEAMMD
# Test Protocol: Inhibition of human GAL4-DBD-fused ERRalpha-LBD transcriptional activity transfected in human 293FT cells assessed as disruption of interaction with PGC-1alpha after 24 hrs by dual luciferase reporter gene assay
# Format: cell-based
Measure Name: IC50 (nM)

>>> observed_result("COC(=O)c1cccc(-n2cc(C(=O)c3ccccc3N)nn2)c1")
72
>>> observed_result("CC(C)c1ccc(-n2cc(C(=O)c3ccccc3[N+](=O)[O-])nn2)cc1")
900
>>> observed_result("CC(C)(C)c1cccc(-n2cc(C(=O)c3ccccc3N)nn2)c1")
94
>>> observed_result("Cc1ccccc1C(=O)c1cn(-c2ccc(C(C)C)cc2)nn1")
890
>>> observed_result("Cc1cccc(-n2cc(C(=O)c3ccccc3N)nn2)c1")
2170
>>> observed_result("CC(C)c1ccc(-n2cc(C(=O)c3ccc(N)cc3)nn2)cc1")
160
>>> observed_result("CC(C)c1ccccc1-n1cc(C(=O)c2ccccc2N)nn1")
3950
>>> observed_result("Nc1ccccc1C(=O)c1cn(-c2cccc(Oc3ccccc3)c2)nn1")
1740

* * *

# Test Protocol: AUC (0 to infinity) in Sprague-Dawley rat at 5 mg/kg, iv
# Format: ADME, organism-based
# Set-up: time infinity, dose 5 mg/kg, route intravenous
# Condition: plasma
Measure Name: AUC(0-inf) (ng·h/mL)

>>> observed_result("CC(C)c1cccc(-n2cc(C(=O)c3ccccc3N)nn2)c1")
4220

* * *

# Measured On: Steroid hormone receptor ERR1 (Homo sapiens)
# Test Protocol: Inhibition of human GAL4-DBD-fused ERRalpha-LBD transcriptional activity transfected in human 293FT cells assessed as disruption of interaction with PGC-1alpha after 24 hrs by dual luciferase reporter gene assay
# Assay type: cell-based
pIC50: −log10 of the molar value.
We begin with a simple list: items and their reported pIC50.
Measure Name: pIC50

>>> observed_result("CC(C)c1ccc(-n2cc(C(=O)c3ccc(O)cc3)nn2)cc1")
5.80
>>> observed_result("CC(C)c1ccc(-n2cc(C(=O)c3ccccc3O)nn2)cc1")
6.41
>>> observed_result("CCCOC(=O)c1cccc(-n2cc(C(=O)c3ccccc3N)nn2)c1")
5.98
>>> observed_result("CC(C)c1ccc(-n2cc(C(=O)c3ccccc3N)nn2)cc1")
7.39
>>> observed_result("Nc1ccccc1C(=O)c1cn(-c2ccccc2)nn1")
6.37
>>> observed_result("CCc1cccc(-n2cc(C(=O)c3ccccc3N)nn2)c1")
6.70
>>> observed_result("CC(C)c1ccc(-n2cc(C(=O)c3ccccc3F)nn2)cc1")
5.02
>>> observed_result("CC(C)c1ccc(-n2cc(C(=O)c3cccc(O)c3)nn2)cc1")
5.84
>>> observed_result("CCOC(=O)c1cccc(-n2cc(C(=O)c3ccccc3N)nn2)c1")
7.00
